Reference source: patent US20240287172A1

Task for the reader: assign each of the following binders its reported loss of binding vs wild type.
Target: T1, hiR2-FL-D535A-T7 (human, UniProt Q6PJF5 1-856)
T1 sequence: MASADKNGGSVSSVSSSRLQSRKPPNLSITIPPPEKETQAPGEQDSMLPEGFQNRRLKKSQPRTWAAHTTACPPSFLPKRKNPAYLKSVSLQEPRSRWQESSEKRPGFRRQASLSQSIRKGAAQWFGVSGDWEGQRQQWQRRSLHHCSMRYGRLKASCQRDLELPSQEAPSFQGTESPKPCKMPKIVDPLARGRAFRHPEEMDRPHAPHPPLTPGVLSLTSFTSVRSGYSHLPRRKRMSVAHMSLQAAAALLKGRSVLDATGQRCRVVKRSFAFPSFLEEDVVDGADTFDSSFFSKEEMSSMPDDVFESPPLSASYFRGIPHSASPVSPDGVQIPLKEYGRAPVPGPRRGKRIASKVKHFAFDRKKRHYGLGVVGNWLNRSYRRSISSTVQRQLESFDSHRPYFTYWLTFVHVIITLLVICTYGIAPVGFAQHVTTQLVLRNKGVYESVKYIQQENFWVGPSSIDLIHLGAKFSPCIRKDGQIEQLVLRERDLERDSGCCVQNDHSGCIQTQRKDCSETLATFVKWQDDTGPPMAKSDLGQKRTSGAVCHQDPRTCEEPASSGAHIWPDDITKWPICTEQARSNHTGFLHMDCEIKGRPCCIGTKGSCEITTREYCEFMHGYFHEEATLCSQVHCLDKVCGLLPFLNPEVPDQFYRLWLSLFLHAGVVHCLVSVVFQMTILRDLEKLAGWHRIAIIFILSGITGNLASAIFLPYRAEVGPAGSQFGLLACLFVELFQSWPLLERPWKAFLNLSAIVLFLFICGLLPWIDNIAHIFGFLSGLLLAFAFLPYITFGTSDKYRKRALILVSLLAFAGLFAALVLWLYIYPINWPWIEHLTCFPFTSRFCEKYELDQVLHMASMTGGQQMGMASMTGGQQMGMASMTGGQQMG
Assay: FACS on MEF-DKO cells expressing the variant, 3 µg/ml antibody

Can you look up the measured loss of binding vs wild type of antibody 42 (antibody, V domains shown, mouse IgG, kappa light chain; also called clone #42; purified antibody 42) VH: QVTLKESGPGILQPSQTLSLTCSLSGFSLSTFGRGVGWIRQPSGKGLEWLAHIWWDDEKYYNPALKSRLTISKDTSKNQVFLRIANVDTADTATYYCARIQNYGSNYWYFDVWGTGTTVTVSS VL: LIVLTQSPAIMSASPGEKVTMTCGATSRISYMFWYQQKPGSSPRVLIYDTSNLASGVPVRFSGSGSGTSYSLTISRVEAEDVATYYCQQWNSYPLTFGAGTKLELK for me?
≥ 30%

Can you look up the measured loss of binding vs wild type of antibody 34 (antibody, V domains shown, mouse IgG, kappa light chain; also called clone #34; purified antibody 34) VH: QVTLKESGPGILQPSQTLSLTCSFSGFSLSTFSLGVGWIRQSSGKGLEWLAHIWWDDEKYYNPALKSRLTISKDTSKNQVFLKIANVDAADTATYYCARAYYSKSYYALDYWGQGTSVTVSS VL: DIQMTQSPSSLSASLGERVSLTCRASQEISGYLSWLQQKPDGTIKRLIYAASTLDSGVPKRFSGSRSGSDYSLAISSLESEDFADYYCLQYANFPFTFGSGTKLEIK for me?
≥ 30%

Can you look up the measured loss of binding vs wild type of antibody 44 (antibody, V domains shown, mouse IgG, kappa light chain; also called clone #44; purified antibody 44) VH: QVTLKESGPGILQPSQTLSLTCSFSGFSLSTFGMGVGWIRQPSEKGLEWLAHIWWDDDKYYNPALKSRLTISKDTSKNQIFLKITNVDTAETATYYCSRIGNYGSNYWYFDVWGTGTTVTVSS VL: QIVLTQSPAVMSASPGEKVTMTCTASSSVYYMYWYQQTPGSSPRLLIYDTSNLASGVPVRFSGSGSGTSYSLTISRMEAEDAATYYCQQWNTYPLTFGAGTKLELK for me?
≥ 30%
